quantity: melting point

These solved cases illustrate the format of a correct answer.
O=C(NCC(c1ccccc1)C(c1ccccc1)c1ccccc1)c1cc2ccccc2s1 (centres unmarked) [Compound 43]    218.3 to 218.8 °C
COc1ccc(CC(=O)NCC2(c3ccccc3)CC2(c2ccccc2)c2ccccc2)cc1OC (centres unmarked) [Compound 79]    131 to 133.5 °C
O=C(NCC(c1ccccc1)C(c1ccccc1)c1ccccc1)Oc1ccc2ccccc2c1 (centres unmarked) [Compound 59]    151 to 152 °C
COc1ccccc1CCC(=O)NCC1(c2ccccc2)CC1(c1ccccc1)c1ccccc1 (centres unmarked) [Compound 81]    187.5 to 189 °C
Cc1ccc(C(=O)NCC2(c3ccccc3)CC2(c2ccccc2)c2ccccc2)s1 (centres unmarked) [Compound 91]    168 to 170.5 °C

[ask] What value of measured melting point is listed for O=C(NCC(c1ccccc1)C(c1ccccc1)c1ccccc1)Nc1ccccc1F (centres unmarked) [Compound 53] ?
[reply] 190 to 191 °C

[ask] # iterate: O=C(NCC1(c2ccccc2)CC1(c1ccccc1)c1ccccc1)Oc1ccccc1 (centres unmarked) [Compound 96]
[reply] 146 to 147 °C

[ask] # iterate: CCOC(=O)CC(=O)NCC(c1ccccc1)C(c1ccccc1)c1ccccc1 (centres unmarked) [Compound 65]
[reply] 103 to 105.5 °C

* * *

target: human glucocorticoid receptor (hGR) (Homo sapiens)
Construct: made in house; host or cells: Sf21 insect cells infected with baculovirus hGR, OR IM9 lymphoblast cell line (endogenous hGR)
measurement.notes: human glucocorticoid receptor binding assay (displacement of 3H triamcinolone acetonide)
assay.context: 1 μM
quantity: hGR, value given as % (% inhibition) (%)

These solved cases illustrate the format of a correct answer.
COc1ccccc1NC(=O)NCC(c1ccccc1)C(c1ccccc1)c1ccccc1 (centres unmarked)    32
O=C(Cc1ccccc1C(F)(F)F)NCC(c1ccccc1)C1c2ccccc2-c2ccccc21 (centres unmarked)    15

[1] CC(C)CC(=O)NCC1(c2ccccc2)CC1(c1ccccc1)c1ccccc1 (centres unmarked)
[2] COc1ccccc1NC(=O)NCC1(c2ccccc2)CC1(c1ccccc1)c1ccccc1 (centres unmarked)
[ask] Would you mind telling me which has the lower recorded hGR, value given as % (% inhibition) between 1 and 2 ? Please reply using the label of the selected record.
[reply] 2

[P] COc1ccccc1CCC(=O)NCC(c1ccccc1)C1c2ccccc2-c2ccccc21 (centres unmarked)
[Q] O=C(NCc1ccccc1)NCC1(c2ccccc2)CC1(c1ccccc1)c1ccccc1 (centres unmarked)
[ask] So which one has the bigger hGR, value given as % (% inhibition) here, P or Q ? Please reply using the label of the selected record.
[reply] P

* * *

target: human glucocorticoid receptor (hGR) (Homo sapiens, UniProt P04150)
Construct: made in house; host or cells: Sf21 insect cells infected with baculovirus hGR, OR IM9 lymphoblast cell line (endogenous hGR)
Sequence (P04150 whole entry): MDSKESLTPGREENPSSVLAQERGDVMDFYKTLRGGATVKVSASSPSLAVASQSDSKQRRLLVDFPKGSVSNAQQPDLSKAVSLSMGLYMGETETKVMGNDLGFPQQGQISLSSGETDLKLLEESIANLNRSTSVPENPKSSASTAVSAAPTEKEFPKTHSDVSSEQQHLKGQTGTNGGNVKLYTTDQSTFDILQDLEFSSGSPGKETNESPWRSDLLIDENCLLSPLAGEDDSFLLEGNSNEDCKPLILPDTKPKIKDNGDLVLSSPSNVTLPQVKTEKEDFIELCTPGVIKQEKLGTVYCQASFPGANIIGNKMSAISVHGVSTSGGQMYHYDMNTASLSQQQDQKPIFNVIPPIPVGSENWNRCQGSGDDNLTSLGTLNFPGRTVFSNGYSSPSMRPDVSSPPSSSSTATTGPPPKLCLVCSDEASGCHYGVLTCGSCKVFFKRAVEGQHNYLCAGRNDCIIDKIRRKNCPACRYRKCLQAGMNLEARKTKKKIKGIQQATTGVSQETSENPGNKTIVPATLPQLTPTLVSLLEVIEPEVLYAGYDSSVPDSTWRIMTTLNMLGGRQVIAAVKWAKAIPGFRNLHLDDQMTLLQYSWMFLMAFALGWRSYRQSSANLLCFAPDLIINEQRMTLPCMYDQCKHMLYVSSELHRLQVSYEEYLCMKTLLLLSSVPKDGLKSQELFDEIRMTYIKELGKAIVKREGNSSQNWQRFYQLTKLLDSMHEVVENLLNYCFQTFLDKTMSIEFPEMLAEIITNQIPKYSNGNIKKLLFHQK
measurement.notes: human glucocorticoid receptor binding assay (displacement of 3H triamcinolone acetonide)
assay.context: 1 μM
quantity: hGR, value given as % (% inhibition) (%)

COc1ccccc1CC(=O)NCC(c1ccccc1)C1c2ccccc2-c2ccccc21 (stereo not drawn)    23

[A] O=C(Cc1ccccc1Cl)NCC(c1ccccc1)C1c2ccccc2-c2ccccc21 (stereo not drawn)
[B] O=C(NCC1(c2ccccc2)CC1(c1ccccc1)c1ccccc1)Nc1ccccc1F (stereo not drawn)
[ask] So which one has the bigger hGR, value given as % (% inhibition) here, A or B ? Please reply using the label of the selected record.
[reply] A
